Reference source: patent US11584714B2

# testedOn: MASP-2 (CCP1-CCP2-SP) (Homo sapiens (Human), UniProt O00187)
# Sequence (O00187 445-686): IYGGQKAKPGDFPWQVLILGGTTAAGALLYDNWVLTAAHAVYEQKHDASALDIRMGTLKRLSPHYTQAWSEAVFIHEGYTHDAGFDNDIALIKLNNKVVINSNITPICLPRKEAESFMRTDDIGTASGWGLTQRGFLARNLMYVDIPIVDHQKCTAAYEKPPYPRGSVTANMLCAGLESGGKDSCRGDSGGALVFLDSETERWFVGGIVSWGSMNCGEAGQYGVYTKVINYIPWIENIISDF
# experimentSummary: biochemical
# Assay type: biochemical
# measurementSetup: selectivity for MASP-2 inhibition versus thrombin
Counter-ions that a name gives are not always drawn.

- compound: "C[C@H](NC(=O)[C@H]1C[C@H](Cc2ccccc2-c2ccccc2)CN1)C(=O)NCc1cc(Cl)ccc1-n1cnnn1 [compound 1402, Trifluoroacetate]"
  MASP-2 vs. thrombin selectivity: "* (≥1.0 to <5.0-fold)"
- compound: "Cc1nc(N)ccc1CNC(=O)[C@H](C)NC(=O)[C@H]1C[C@@H](CCc2ccccc2)CN1 [compound 1322, Dihydrochloride]"
  MASP-2 vs. thrombin selectivity: "*** (≥25 to <100-fold)"
- compound: "N=C(N)c1ccc(CNC(=O)[C@H](Cc2ccc(O)cc2)NC(=O)[C@H](N)CCc2ccccc2)cc1 [compound 1326, Di-trifluoroacetate salt]"
  MASP-2 vs. thrombin selectivity: "*** (≥25 to <100-fold)"
- compound: "Cc1nc(N)ccc1CNC(=O)[C@H](C)NC(=O)[C@H]1C[C@H](Cc2ccc3nonc3c2)CN1 [compound 1470, Di-trifluoroacetate salt]"
  MASP-2 vs. thrombin selectivity: "**** (≥100-fold)"
- compound: "C[C@H](NC(=O)[C@H]1C[C@H](c2ccccc2)CN1)C(=O)NCc1cc2c(Br)cncc2[nH]1 [compound 1493, Di-trifluoroacetate salt]"
  MASP-2 vs. thrombin selectivity: "* (≥1.0 to <5.0-fold)"
- compound: "Cc1ccc([C@H]2CN[C@@H](C(=O)N[C@@H](C)C(=O)NCc3ccc(C(=N)N)cc3)C2)cc1 [compound 1252]"
  MASP-2 vs. thrombin selectivity: "*** (≥25 to <100-fold)"
- compound: "Cc1nc(N)ccc1CNC(=O)[C@H](C)NC(=O)[C@H]1C[C@H](Cc2cccc(Br)c2)CN1 [compound 1452, Dihydrochloride]"
  MASP-2 vs. thrombin selectivity: "**** (≥100-fold)"
- compound: "Cc1nc(N)ccc1CNC(=O)[C@H](C)NC(=O)[C@H]1C[C@H](Cc2cc(Cl)cc3ccccc23)CN1 [compound 1432, Dihydrochloride]"
  MASP-2 vs. thrombin selectivity: "**** (≥100-fold)"
- compound: "Cc1nc(N)ccc1CNC(=O)[C@H](C)NC(=O)[C@H]1C[C@H](Cc2ccc(F)c(Cl)c2)CN1 [compound 1459, Di-trifluoroacetate salt]"
  MASP-2 vs. thrombin selectivity: "**** (≥100-fold)"
- compound: "C[C@H](NC(=O)[C@H](N)CCc1ccccc1)C(=O)NCc1cc(Cl)ccc1[N+](=O)[O-] [compound 1246]"
  MASP-2 vs. thrombin selectivity: "* (≥1.0 to <5.0-fold)"
- compound: "C[C@H](NC(=O)[C@H]1C[C@H](c2ccccc2)CN1)C(=O)NCc1ccc2[nH]cc(Cl)c2c1 [compound 1362]"
  MASP-2 vs. thrombin selectivity: "* (≥1.0 to <5.0-fold)"
- compound: "Cc1nc(N)ccc1CNC(=O)[C@H](C)NC(=O)[C@H]1C[C@H](Cc2ccc(C(C)(C)C)cc2)CN1 [compound 1380, Dihydrochloride]"
  MASP-2 vs. thrombin selectivity: "*** (≥25 to <100-fold)"
- compound: "Cc1cccc(C[C@@H]2CN[C@@H](C(=O)N[C@@H](C)C(=O)NCc3cc(Cl)cc(C)c3O)C2)c1 [compound 1369, Hydrochloride]"
  MASP-2 vs. thrombin selectivity: "**** (≥100-fold)"
